Could you please report measured koff for the items listed next?
Biological target: T1, Recombinant human OX40 extracellular domain fused to human IgG1 Fc (human, UniProt P43489 29-214)
T1 construct: Produced in-house; also called OX40 ECD-Fc; human OX40 ECD-Fc; not shown: human IgG1 Fc
T1 sequence: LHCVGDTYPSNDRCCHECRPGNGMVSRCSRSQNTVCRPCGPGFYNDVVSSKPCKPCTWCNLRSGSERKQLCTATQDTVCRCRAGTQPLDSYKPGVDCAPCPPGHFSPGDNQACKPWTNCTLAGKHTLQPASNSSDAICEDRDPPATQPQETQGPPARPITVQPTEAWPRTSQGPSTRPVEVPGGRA
Assay: Octet, human OX40 ECD-Fc immobilized on a biosensor chip
Text: The tetravalent antibodies were produced from transiently transfected ExpiCHO cells, and purified by Protein A affinity column.
One number for each entry, in s⁻¹.

1B3 VHH-Fc bivalent antibody (antibody, human IgG1, V domains shown, also called 1B3-bivalent) VH: EVQLVESGGGLVQPGGSLRLSCAASGPLGMPSIAWFRQAPGKGLEFVSGIAWSTGDTYYADSVKGRFTISRDNSKNTLYLQMNSLRAEDTAVYYCAADTQVHYMGRHDIRDREEYDYWGQGTLVTVSS = 0.000391

Each binder below has a recorded value; state its koff.
1. 2B7 tetravalent anti-OX40 antibody (2B7 VHH with GS linker on CH1 and on CL of human IgG1) (antibody, V domains shown) V domain 1: EVQLVESGGGLVQPGGSLRLSCAASGPLGAPSIAWFRQAPGKGLEFVSGIAWSTGDTYYADSVKGRFTISRDNSKNTLYLQMNSLRAEDTAVYYCAADTSVHYMGRHDIRDYEEYDYWGQGTLVTVSS V domain 2: EVQLVESGGGLVQPGGSLRLSCAASGPLGAPSIAWFRQAPGKGLEFVSGIAWSTGDTYYADSVKGRFTISRDNSKNTLYLQMNSLRAEDTAVYYCAADTSVHYMGRHDIRDYEEYDYWGQGTLVTVSS
2. 2B7 VHH-Fc bivalent antibody (antibody, human IgG1, V domains shown, also called 2B7-bivalent) VH: EVQLVESGGGLVQPGGSLRLSCAASGPLGAPSIAWFRQAPGKGLEFVSGIAWSTGDTYYADSVKGRFTISRDNSKNTLYLQMNSLRAEDTAVYYCAADTSVHYMGRHDIRDYEEYDYWGQGTLVTVSS
3. 1B3 tetravalent anti-OX40 antibody (1B3 VHH with GS linker on CH1 and on CL of human IgG1) (antibody, V domains shown, Four-chain format; The heavy and light variable regions of human IgG1 are replaced by the VHH) V domain 1: EVQLVESGGGLVQPGGSLRLSCAASGPLGMPSIAWFRQAPGKGLEFVSGIAWSTGDTYYADSVKGRFTISRDNSKNTLYLQMNSLRAEDTAVYYCAADTQVHYMGRHDIRDREEYDYWGQGTLVTVSS V domain 2: EVQLVESGGGLVQPGGSLRLSCAASGPLGMPSIAWFRQAPGKGLEFVSGIAWSTGDTYYADSVKGRFTISRDNSKNTLYLQMNSLRAEDTAVYYCAADTQVHYMGRHDIRDREEYDYWGQGTLVTVSS

Output line:
[0.000763, 0.000398, 0.000646]
